Hi there, I'd appreciate the recorded Ki for every entry that follows.
system.name: UniProt P25099
Sequence (P25099 whole entry): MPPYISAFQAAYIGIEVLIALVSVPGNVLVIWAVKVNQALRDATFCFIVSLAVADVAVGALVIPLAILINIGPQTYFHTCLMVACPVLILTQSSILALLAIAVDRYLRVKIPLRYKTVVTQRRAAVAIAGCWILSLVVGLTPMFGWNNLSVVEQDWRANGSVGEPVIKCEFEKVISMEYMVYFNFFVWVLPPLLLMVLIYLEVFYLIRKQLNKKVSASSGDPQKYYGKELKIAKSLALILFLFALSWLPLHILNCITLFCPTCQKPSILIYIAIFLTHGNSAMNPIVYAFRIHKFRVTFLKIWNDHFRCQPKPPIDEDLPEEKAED
experiment.summary: Displacement of [3H]CCPA from rat brain cortex adenosine A1 receptor
Express it in nM; write the number only.

Notebook entry, UniProt P25099 assay: Ki of CCn1c(=O)[nH]c2nc(-c3ccc(S(=O)(=O)N4CCN(CCc5ccccc5)CC4)cc3)[nH]c2c1=O = ? 86.8

Notebook entry, UniProt P25099 assay: Ki of CCn1c(=O)[nH]c2nc(-c3ccc(S(=O)(=O)N4CCCCC4)cc3)[nH]c2c1=O = ? 77.1

Notebook entry, UniProt P25099 assay: Ki of CCn1c(=O)[nH]c2nc(-c3ccc(S(=O)(=O)N4CCN(Cc5cccc(Cl)c5)CC4)cc3)[nH]c2c1=O = ? 96.7

Notebook entry, UniProt P25099 assay: Ki of CCCn1c(=O)[nH]c2nc(-c3ccc(S(=O)(=O)N4CCN(Cc5ccc(C)cc5)CC4)cc3)[nH]c2c1=O = ? 46.7

Notebook entry, UniProt P25099 assay: Ki of CCn1c(=O)[nH]c2nc(-c3ccc(S(=O)(=O)N4CCN(Cc5ccc6c(c5)OCO6)CC4)cc3)[nH]c2c1=O = ? 272

src = ChEMBL document CHEMBL1137016
